- Tested on: Birdseye Speedwell
- Test protocol: pre-emergence herbicide test
- Assay type: in vivo
- Condition parameters: pre-emergence, 0.25 lb/A; read-out: % plant inhibition
Task for the reader: assign each of the following compounds its reported inhibition at 280.212 g/ha.
One number for each entry, in %.

[
  {
    "Compound smiles": "Cc1c(-c2cc(C(=O)OCC(=O)c3ccccc3)c(Cl)cc2F)nn(C)c1C(F)(F)F",
    "Target or test system": "Birdseye Speedwell",
    "inhibition at 280.212 g/ha [%]": 60
  },
  {
    "Compound smiles": "Cc1cc(-c2nn(C)c(C(F)(F)F)c2C)c(F)cc1Cl",
    "Target or test system": "Birdseye Speedwell",
    "inhibition at 280.212 g/ha [%]": 55
  },
  {
    "Compound smiles": "CCOC(=O)C=C(COC(=O)c1cc(-c2nn(C)c(C(F)(F)F)c2C)c(F)cc1Cl)OC",
    "Target or test system": "Birdseye Speedwell",
    "inhibition at 280.212 g/ha [%]": 85
  }
]

Note: attention shifts to another entry.
So what's the measured inhibition at 280.212 g/ha for this one? Cc1c(-c2cc(C(=O)O)c(Cl)cc2F)nn(C)c1C(F)(F)F 55
